Target: hERG channel (Homo sapiens, UniProt Q12809)
Construct: expressed in transfected cells; host or cells: CHO (Chinese hamster ovary), CHOhERG
Sequence (Q12809 whole entry): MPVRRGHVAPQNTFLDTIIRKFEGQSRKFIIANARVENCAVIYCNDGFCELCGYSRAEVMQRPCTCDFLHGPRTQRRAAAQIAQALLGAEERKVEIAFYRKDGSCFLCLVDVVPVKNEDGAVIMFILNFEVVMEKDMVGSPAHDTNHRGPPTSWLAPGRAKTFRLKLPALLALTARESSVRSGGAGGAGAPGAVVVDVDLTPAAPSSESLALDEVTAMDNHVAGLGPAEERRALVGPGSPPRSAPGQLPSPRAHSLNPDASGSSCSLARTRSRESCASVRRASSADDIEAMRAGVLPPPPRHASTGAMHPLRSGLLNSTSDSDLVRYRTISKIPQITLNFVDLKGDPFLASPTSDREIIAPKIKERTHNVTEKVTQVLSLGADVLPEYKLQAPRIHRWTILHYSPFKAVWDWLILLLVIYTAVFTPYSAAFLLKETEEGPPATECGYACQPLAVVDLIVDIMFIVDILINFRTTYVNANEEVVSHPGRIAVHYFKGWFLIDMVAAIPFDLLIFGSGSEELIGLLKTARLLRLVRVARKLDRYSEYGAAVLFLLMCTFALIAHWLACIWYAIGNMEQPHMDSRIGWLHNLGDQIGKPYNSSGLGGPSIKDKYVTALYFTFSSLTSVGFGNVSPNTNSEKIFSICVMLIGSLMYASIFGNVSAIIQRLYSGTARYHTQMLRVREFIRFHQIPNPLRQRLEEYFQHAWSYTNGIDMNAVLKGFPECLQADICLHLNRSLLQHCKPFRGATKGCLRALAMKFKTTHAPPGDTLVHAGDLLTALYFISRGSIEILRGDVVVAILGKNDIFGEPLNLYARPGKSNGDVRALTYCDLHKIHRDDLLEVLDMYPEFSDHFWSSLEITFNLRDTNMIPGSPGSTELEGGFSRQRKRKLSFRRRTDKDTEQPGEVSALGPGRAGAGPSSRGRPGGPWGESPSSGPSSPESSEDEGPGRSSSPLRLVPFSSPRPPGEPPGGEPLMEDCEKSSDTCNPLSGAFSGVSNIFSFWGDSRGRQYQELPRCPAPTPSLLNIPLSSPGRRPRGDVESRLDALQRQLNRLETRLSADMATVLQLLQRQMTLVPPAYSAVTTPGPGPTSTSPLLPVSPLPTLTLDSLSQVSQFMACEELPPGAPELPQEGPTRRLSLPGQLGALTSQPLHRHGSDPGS
Experiment: hERG channel inhibition assay (patch-clamp, CHOhERG cells)
Format: cell-based
Details: safety ratio
Parameter Measured: hERG IC20/TLR9 IC50
The reply should be a number, written without any unit.

{"columns": ["Compound", "hERG IC20/TLR9 IC50"],
 "data": [
  ["Cc1cc(NC2CCN(C[C@H]3CN(c4ccc(C#N)c5ncccc45)C[C@@H](C)O3)C2)cc(CO)n1 (stereo partly drawn)", 142.1]
]}

With those in mind, consider the next compound.
Inquiry: What does the data say about its hERG IC20/TLR9 IC50? Entry: CC(O)c1cc(N2CC3(CN(C[C@H]4CN(c5ccc(C#N)c6ncccc56)C[C@@H](C)O4)C3)C2)ccn1 (stereo partly drawn)
Reply text: 146.6

----------
Target: CYP2D6 (Homo sapiens, UniProt P10635)
Construct: tissue BD-Gentest 452117; host or cells: human liver microsomes
Sequence (P10635 whole entry): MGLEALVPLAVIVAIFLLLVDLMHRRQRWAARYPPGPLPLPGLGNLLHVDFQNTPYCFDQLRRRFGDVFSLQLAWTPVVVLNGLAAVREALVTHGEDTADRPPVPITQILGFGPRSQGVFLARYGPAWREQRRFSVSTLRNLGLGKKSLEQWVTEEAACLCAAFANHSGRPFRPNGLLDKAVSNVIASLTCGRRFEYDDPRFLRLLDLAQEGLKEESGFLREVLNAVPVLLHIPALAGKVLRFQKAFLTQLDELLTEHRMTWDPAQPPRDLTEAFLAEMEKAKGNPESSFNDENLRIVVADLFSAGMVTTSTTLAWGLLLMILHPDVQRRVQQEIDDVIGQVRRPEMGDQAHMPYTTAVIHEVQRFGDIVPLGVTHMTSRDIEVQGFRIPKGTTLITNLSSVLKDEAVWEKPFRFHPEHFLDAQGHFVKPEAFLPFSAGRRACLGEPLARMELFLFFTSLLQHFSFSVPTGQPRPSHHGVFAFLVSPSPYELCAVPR
Experiment: CYP inhibition assay in human liver microsome
Format: in vitro ADME
Settings: human liver microsomes, probe dextromethorphan, dextromethorphan substrate, percentage inhibition <0: not or weak inhibitor, read-out: CYP 2D6 inhibition %@10 μM
Parameter Measured: inhibition at 10 min, 10 μM

{"columns": ["Compound", "inhibition at 10 min, 10 μM"],
 "data": [
  ["C[C@@H]1CN(c2ccc(C#N)c3ncccc23)C[C@H](CN2CCN(c3cc(N)nc(CO)c3)CC2)O1 [Example 45]", "-2.5%"]
]}

Inquiry: Which inhibition at 10 min, 10 μM value is on record for C[C@@H]1CN(c2ccc(C#N)c3ncccc23)C[C@H](CN[C@H]2CCCN(c3ccnc(N)c3)C2)O1 [Example 22] ?
Reply text: 2%

Inquiry: May I ask what inhibition at 10 min, 10 μM has been recorded for Cc1cc(N2CCC3(CN(C[C@H]4CN(c5ccc(C#N)c6ncccc56)C[C@@H](C)O4)C3)C2)cc(C)n1 [Example 9] ?
Reply text: -5%

Inquiry: What value of measured inhibition at 10 min, 10 μM is listed for Cc1cc(N2CCC[C@@H](NC[C@H]3CN(c4ccc(C#N)c5ncccc45)C[C@@H](C)O3)C2)cc(CO)n1 [Example 24] ?
Reply text: -9.5%

Inquiry: For Cc1cc(N2CCC23CN(C[C@H]2CN(c4ccc(C#N)c5ncccc45)C[C@@H](C)O2)C3)cc(CO)n1 [Example 12] , what is its reported inhibition at 10 min, 10 μM?
Reply text: -3%

Inquiry: What value of measured inhibition at 10 min, 10 μM is listed for C[C@@H]1CN(c2ccc(C#N)c3ncccc23)C[C@H](CN[C@@H]2CCCN(c3ccnc(N)c3)C2)O1 [Example 21] ?
Reply text: 2%

Inquiry: Quick one: inhibition at 10 min, 10 μM of C[C@@H]1CN(c2ccc(C#N)c3ncccc23)C[C@H](CN2CC3(C2)CN(c2ccnc(CO)c2)CCO3)O1 [Example 51] ?
Reply text: -15.5%

Inquiry: Looking for the measured inhibition at 10 min, 10 μM of Cc1cc(N2CC(NC[C@H]3CN(c4ccc(C#N)c5ncccc45)C[C@@H](C)O3)C2)cc(CO)n1 [Example 30] , can you help?
Reply text: 8.5%

Inquiry: Form field: reported inhibition at 10 min, 10 μM of Cc1cc(NC2CN(C[C@H]3CN(c4ccc(C#N)c5ncccc45)C[C@@H](C)O3)C2)cc(C)n1 [Example 7]
Reply text: -21.5%

----------
Target: human TLR7 (Homo sapiens)
Construct: host or cells: HEK293-Blue-hTLR-7 (HEK293)
Experiment: HEK293-Blue-hTLR-7 cells assay
Assay type: cell-based
Details: HEK293-Blue-hTLR7 cells, R848 stimulation, 20 hrs, SEAP reporter; read-out: HEK/hTLR7 IC50
pIC50: −log10 of the molar value.
Answer rule not met if pIC50 is under 7, and rule met if it is 7 or more.

{"columns": ["Compound", "Qualitative Label"],
 "data": [
  ["Cc1cc(N2CCN(C[C@H]3CN(c4ccc(C#N)c5ncccc45)C[C@@H](C)O3)[C@H](C)C2)cc(CO)n1", "rule met"],
  ["Cc1cc(N2CCC23CN(C[C@H]2CN(c4ccc(C#N)c5ncccc45)C[C@@H](C)O2)C3)cc(CO)n1", "rule met"],
  ["Cc1cc(N2CCOC3(CN(C[C@H]4CN(c5ccc(C#N)c6ncccc56)C[C@@H](C)O4)C3)C2)ccn1", "rule met"],
  ["C[C@@H]1CN(c2ccc(C#N)c3ncccc23)C[C@H](CN[C@H]2CCCN(c3ccnc(N)c3)C2)O1", "rule met"]
]}

Inquiry: Does the reported pIC50 for `Cc1cc(N2CCC(NC[C@H]3CN(c4ccc(C#N)c5ncccc45)C[C@@H](C)O3)CC2)cc(CO)n1` fall at or above the 7 mark?
Reply text: rule not met

Inquiry: Check this compound for pIC50 at or above 7: Cc1cc(N2CC(NC[C@H]3CN(c4ccc(C#N)c5ncccc45)C[C@@H](C)O3)CC(F)(F)C2)cc(CO)n1 (stereo partly shown)
Reply text: rule met

----------
Biological target: hERG channel (Homo sapiens)
Construct: expressed in transfected cells; host or cells: CHO (Chinese hamster ovary), CHOhERG
Test: hERG channel inhibition assay (patch-clamp, CHOhERG cells)
Assay type: cell-based
Settings: human, CHO cells stably expressing hERG (CHOhERG); CHOhERG cells, whole-cell patch-clamp
Parameter Measured: IC20 (µM)
Write the answer as a number in µM, unit excluded.

{"columns": ["Compound", "Unit Tag", "IC20"],
 "data": [
  ["Cc1cc(NC2CCN(C[C@H]3CN(c4ccc(C#N)c5ncccc45)C[C@@H](C)O3)CC2)cc(CO)n1 [Example 5]", "µM", 7.18],
  ["Cc1cc(N2CC(NC[C@H]3CN(c4ccc(C#N)c5ncccc45)C[C@@H](C)O3)C2)cc(CO)n1 [Example 30]", "µM", 4.51],
  ["CC(O)c1cc(N2CC3(CN(C[C@H]4CN(c5ccc(C#N)c6ncccc56)C[C@@H](C)O4)C3)C2)ccn1 (stereo partly shown) [Example 46]", "µM", 4.69]
]}

Inquiry: Quick one: IC20 for Cc1cc(NC2CCN(C[C@H]3CN(c4ccc(C#N)c5ncccc45)C[C@@H](C)O3)C2)cc(CO)n1 (stereo partly shown) [Example 6] ?
Reply text: 5.83

----------
Target: human TLR7 (Homo sapiens, UniProt Q9NYK1)
Sequence (Q9NYK1 27-1049): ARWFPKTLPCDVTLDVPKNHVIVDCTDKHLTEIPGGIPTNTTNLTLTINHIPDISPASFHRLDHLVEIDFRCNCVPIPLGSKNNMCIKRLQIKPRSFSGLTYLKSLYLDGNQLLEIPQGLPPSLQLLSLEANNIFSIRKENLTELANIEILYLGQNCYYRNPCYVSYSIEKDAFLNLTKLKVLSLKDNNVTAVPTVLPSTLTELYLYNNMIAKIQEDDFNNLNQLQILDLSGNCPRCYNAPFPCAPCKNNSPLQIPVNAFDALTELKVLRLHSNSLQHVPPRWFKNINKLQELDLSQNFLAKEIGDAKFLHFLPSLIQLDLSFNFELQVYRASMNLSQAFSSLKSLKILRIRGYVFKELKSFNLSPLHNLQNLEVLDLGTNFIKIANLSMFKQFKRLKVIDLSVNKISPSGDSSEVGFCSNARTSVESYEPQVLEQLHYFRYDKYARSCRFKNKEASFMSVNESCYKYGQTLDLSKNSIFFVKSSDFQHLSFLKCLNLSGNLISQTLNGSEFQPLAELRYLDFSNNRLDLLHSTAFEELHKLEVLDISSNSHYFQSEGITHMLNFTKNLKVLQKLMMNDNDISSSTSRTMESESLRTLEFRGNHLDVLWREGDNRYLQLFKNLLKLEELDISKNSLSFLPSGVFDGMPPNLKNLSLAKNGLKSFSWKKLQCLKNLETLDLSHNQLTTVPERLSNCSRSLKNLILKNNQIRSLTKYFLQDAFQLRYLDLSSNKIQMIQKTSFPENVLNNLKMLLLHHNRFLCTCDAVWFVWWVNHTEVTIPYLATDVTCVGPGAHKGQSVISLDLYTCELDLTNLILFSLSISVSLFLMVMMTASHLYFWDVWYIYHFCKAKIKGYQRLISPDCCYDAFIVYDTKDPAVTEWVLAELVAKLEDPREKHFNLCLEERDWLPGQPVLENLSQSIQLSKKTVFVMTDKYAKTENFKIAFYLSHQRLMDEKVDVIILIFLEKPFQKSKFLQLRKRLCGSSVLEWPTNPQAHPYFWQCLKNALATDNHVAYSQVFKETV
Assay: HEK293-Blue-hTLR-7 cells assay
Details: HEK293-Blue-hTLR7 cells, R848 stimulation, 20 hrs, SEAP reporter; read-out: HEK/hTLR7 IC50
Parameter Measured: pIC50
Please express pIC50 as -log10 of the molar concentration.

{"columns": ["Compound", "pIC50"],
 "data": [
  ["CNc1cc(N2CCN(C[C@H]3CN(c4ccc(C#N)c5ncccc45)C[C@@H](C)O3)CC2)cc(C)n1", 7.89],
  ["C[C@@H]1CN(c2ccc(C#N)c3ncccc23)C[C@H](CN[C@@H]2CCCN(c3ccnc(N)c3)C2)O1", 7.21],
  ["Cc1cc(N2CC3(CN(C[C@H]4CN(c5ccc(C#N)c6ncccc56)C[C@@H](C)O4)C3)C2)cc(C(C)O)n1 (stereo partly shown)", 7.70],
  ["Cc1cc(N2CCC3(CN(C[C@H]4CN(c5ccc(C#N)c6ncccc56)C[C@@H](C)O4)C3)C2)cc(C)n1", 7.80],
  ["Cc1cc(NC2CCN(C[C@H]3CN(c4ccc(C#N)c5ncccc45)C[C@@H](C)O3)C2)cc(CO)n1 (stereo partly shown)", 7.36]
]}

Let us move to another entry and its pIC50.
Inquiry: Under human TLR7 (Homo sapiens, UniProt Q9NYK1): pIC50 value of `Cc1cc(N2CC3(CN(C[C@H]4CN(c5ccc(C#N)c6ncccc56)C[C@@H](C)O4)C3)C2)cc(CO)n1` ?
Reply text: 7.55

----------
Target: CYP2D6 (Homo sapiens, UniProt P10635)
Construct: tissue BD-Gentest 452117; host or cells: human liver microsomes
Assay: CYP inhibition assay in human liver microsome
Type: in vitro ADME
Settings: human liver microsomes, probe dextromethorphan, dextromethorphan substrate, percentage inhibition <0: not or weak inhibitor, read-out: CYP 2D6 inhibition %@10 μM
Reported values of inhibition at 10 min, 10 μM for individual entries
Report the value in % with no unit label.

Worked examples, 2 compounds total:
{"columns": ["Compound", "Readout Value"],
 "data": [
  ["Cc1cc(N2CCC[C@H](NC[C@H]3CN(c4ccc(C#N)c5ncccc45)C[C@@H](C)O3)C2)cc(CO)n1 [Example 25]", 8.5],
  ["Cc1cc(N2CCOC3CN(CC4CN(c5ccc(C#N)c6ncccc56)CC(C)O4)CC32)cc(C)n1 (single isomer, unassigned) [Example 17B]", 5]
]}

Inquiry: # inhibition at 10 min, 10 μM lookup, item Cc1cc(N2CCC[C@@H](N(C)C[C@H]3CN(c4ccc(C#N)c5ncccc45)C[C@@H](C)O3)C2)cc(CO)n1 [Example 35]
Reply text: -4

Inquiry: Quick check: inhibition at 10 min, 10 μM of Cc1cc(N2CCN(C[C@H]3CN(c4ccc(C#N)n5nccc45)C[C@@H](C)O3)C(Cc3ccccc3)C2)cc(C)n1 (stereo partly drawn) [Example 39] ?
Reply text: 7.5

Inquiry: Quick one: inhibition at 10 min, 10 μM of Cc1cc(N2C[C@H]3CN(C[C@H]4CN(c5ccc(C#N)c6ncccc56)C[C@@H](C)O4)C[C@H]3C2)cc(CO)n1 [Example 10] ?
Reply text: 3.5

Inquiry: Data request, read-out inhibition at 10 min, 10 μM, for Cc1cc(N2CCOC3(CN(C[C@H]4CN(c5ccc(C#N)c6ncccc56)C[C@@H](C)O4)C3)C2)cc(C)n1 [Example 14]
Reply text: 19
